molecular target: HDAC2 (Homo sapiens); construct: purchased Reaction Biology Corporation (assay run by the CRO); experiment: HDAC2 inhibition, full IC50 measurement (Reaction Biology; fluorogenic p53 peptide RHKK(Ac)AMC); format: biochemical; conditions: Conc. 1.52E-09 M, t2
Peptide text beside a SMILES is read from it.
readout.type: HDAC2 activity raw data (signal)

molecule="N=C(N)NCCC[C@@H]1NC(=O)[C@H](Cc2c[nH]c3ccccc23)NC(=O)[C@H](CC(=O)O)NC(=O)[C@@H](CO)NC(=O)[C@H](Cc2c[nH]c3ccccc23)NC(=O)[C@H](CCCCCS)NC(=O)[C@H](CCC(N)=O)NC1=O [des4.1.0, SHA-Trp-dSer-Asp-Trp-Arg-Gln] (HELM PEPTIDE1{D.W.R.Q.[O=C([C@H](CCCCCS)N[*:1])[*:2]].W.[dS]}$PEPTIDE1,PEPTIDE1,1:R1-7:R2$$$V2.0)" system_name="HDAC2 (Homo sapiens)" readout_type="HDAC2 activity raw data (signal)" numeric_result=1838943
molecule="NCCCC[C@H]1NC(=O)[C@H](CCC(N)=O)NC(=O)[C@H](CCC(=O)O)NC(=O)[C@@H]2CCCN2C(=O)[C@H](CC(N)=O)NC(=O)[C@H](CCCCCS)NC(=O)CNC(=O)[C@H](Cc2c[nH]c3ccccc23)NC1=O [des1.1.1, SHA-Asn-Pro-Glu-Gln-dLys-Trp-Gly] (HELM PEPTIDE1{E.Q.[dK].W.G.[O=C([C@H](CCCCCS)N[*:1])[*:2]].N.P}$PEPTIDE1,PEPTIDE1,1:R1-8:R2$$$V2.0)" system_name="HDAC2 (Homo sapiens)" readout_type="HDAC2 activity raw data (signal)" numeric_result=986775

---

Overview of recorded HDAC2 activity raw data (signal) for various molecules
biological target: HDAC2 (Homo sapiens, UniProt Q92769); construct: purchased Reaction Biology Corporation (assay run by the CRO); experiment: HDAC2 inhibition, full IC50 measurement (Reaction Biology; fluorogenic p53 peptide RHKK(Ac)AMC); type: biochemical; conditions: Conc. 1.37E-08 M, t1
Sequence (Q92769 whole entry): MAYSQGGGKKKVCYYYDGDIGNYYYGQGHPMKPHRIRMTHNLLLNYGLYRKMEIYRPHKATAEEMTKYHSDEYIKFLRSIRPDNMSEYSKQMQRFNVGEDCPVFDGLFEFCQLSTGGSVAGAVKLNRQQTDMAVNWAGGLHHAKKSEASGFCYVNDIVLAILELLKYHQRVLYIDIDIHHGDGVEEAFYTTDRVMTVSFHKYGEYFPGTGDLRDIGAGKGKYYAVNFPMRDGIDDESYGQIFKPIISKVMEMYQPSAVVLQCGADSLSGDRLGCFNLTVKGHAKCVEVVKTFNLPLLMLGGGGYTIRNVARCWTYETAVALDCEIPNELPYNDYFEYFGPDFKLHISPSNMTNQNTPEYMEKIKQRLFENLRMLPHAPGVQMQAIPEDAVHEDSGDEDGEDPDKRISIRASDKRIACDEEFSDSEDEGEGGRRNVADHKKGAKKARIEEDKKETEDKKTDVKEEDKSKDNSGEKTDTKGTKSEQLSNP
Peptide text beside a SMILES is read from it.
readout.type: HDAC2 activity raw data (signal)

molecule="CCCC[C@H]1NC(=O)[C@H](Cc2ccccc2)NC(=O)[C@H](CCCCCS)NC(=O)[C@@H](CCCNC(=N)N)NC(=O)[C@H](CC(=O)O)NC(=O)[C@@H](CO)NC(=O)[C@@H](C)NC(=O)[C@H](CCCCN)NC1=O [des4.3.1, SHA-Phe-dNle-Lys-dAla-dSer-Asp-dArg] (HELM PEPTIDE1{D.[dR].[O=C([C@H](CCCCCS)N[*:1])[*:2]].F.[CCCC[C@@H](N[*:1])C(=O)[*:2]].K.[dA].[dS]}$PEPTIDE1,PEPTIDE1,1:R1-8:R2$$$V2.0)" numeric_result=1089277
molecule="CCCC[C@H]1NC(=O)[C@H](CC(=O)O)NC(=O)[C@@H](CO)NC(=O)[C@@H](C)NC(=O)[C@H](CCCCN)NC(=O)[C@@H](CCCCN)NC(=O)[C@H](Cc2ccccc2)NC(=O)[C@H](CCCCCS)NC1=O [des4.3.1.2, SHA-Phe-dLys-Lys-dAla-dSer-Asp-dNle] (HELM PEPTIDE1{D.[CCCC[C@@H](N[*:1])C(=O)[*:2]].[O=C([C@H](CCCCCS)N[*:1])[*:2]].F.[dK].K.[dA].[dS]}$PEPTIDE1,PEPTIDE1,1:R1-8:R2$$$V2.0)" numeric_result=1883329
molecule="CCCC[C@H]1NC(=O)[C@H](Cc2ccccc2)NC(=O)[C@H](CCCCCS)NC(=O)[C@@H](CO)NC(=O)[C@H](CC(=O)O)NC(=O)[C@@H](CO)NC(=O)[C@@H](C)NC(=O)[C@H](CCCCN)NC1=O [des4.3.1.1, SHA-Phe-dNle-Lys-dAla-dSer-Asp-dSer] (HELM PEPTIDE1{D.[dS].[O=C([C@H](CCCCCS)N[*:1])[*:2]].F.[CCCC[C@@H](N[*:1])C(=O)[*:2]].K.[dA].[dS]}$PEPTIDE1,PEPTIDE1,1:R1-8:R2$$$V2.0)" numeric_result=1818162
molecule="CC(C)C[C@H]1NC(=O)[C@H](Cc2c[nH]c3ccccc23)NC(=O)[C@H](CCCCCS)NC(=O)[C@@H](Cc2ccc(O)cc2)NC(=O)[C@@H](C(C)C)NC(=O)[C@H](Cc2c[nH]cn2)NC(=O)CNC(=O)CNC(=O)[C@@H](CO)NC1=O [des2.2.0, SHA-Trp-dLeu-dSer-Gly-Gly-His-dVal-dTyr] (HELM PEPTIDE1{G.G.H.[dV].[dY].[O=C([C@H](CCCCCS)N[*:1])[*:2]].W.[dL].[dS]}$PEPTIDE1,PEPTIDE1,1:R1-9:R2$$$V2.0)" numeric_result=715440
molecule="CSCC[C@H]1NC(=O)[C@@H](CO)NC(=O)[C@H](CC(N)=O)NC(=O)[C@H](CC(=O)O)NC(=O)[C@@H]([C@H](C)O)NC(=O)[C@H](Cc2c[nH]c3ccccc23)NC(=O)[C@H](CCCCCS)NC(=O)[C@H](CCCCN)NC(=O)[C@@H](CC(=O)O)NC1=O [des2.1.1, SHA-Trp-dThr-Asp-Asn-dSer-dMet-dAsp-Lys] (HELM PEPTIDE1{D.N.[dS].[dM].[dD].K.[O=C([C@H](CCCCCS)N[*:1])[*:2]].W.[dT]}$PEPTIDE1,PEPTIDE1,1:R1-9:R2$$$V2.0)" numeric_result=599694

---

Overview of recorded HDAC6 activity raw data (signal) for various compounds
Target: HDAC6 (Homo sapiens)
Construct: purchased Reaction Biology Corporation (assay run by the CRO)
Sequence (Q9UBN7 1-1215): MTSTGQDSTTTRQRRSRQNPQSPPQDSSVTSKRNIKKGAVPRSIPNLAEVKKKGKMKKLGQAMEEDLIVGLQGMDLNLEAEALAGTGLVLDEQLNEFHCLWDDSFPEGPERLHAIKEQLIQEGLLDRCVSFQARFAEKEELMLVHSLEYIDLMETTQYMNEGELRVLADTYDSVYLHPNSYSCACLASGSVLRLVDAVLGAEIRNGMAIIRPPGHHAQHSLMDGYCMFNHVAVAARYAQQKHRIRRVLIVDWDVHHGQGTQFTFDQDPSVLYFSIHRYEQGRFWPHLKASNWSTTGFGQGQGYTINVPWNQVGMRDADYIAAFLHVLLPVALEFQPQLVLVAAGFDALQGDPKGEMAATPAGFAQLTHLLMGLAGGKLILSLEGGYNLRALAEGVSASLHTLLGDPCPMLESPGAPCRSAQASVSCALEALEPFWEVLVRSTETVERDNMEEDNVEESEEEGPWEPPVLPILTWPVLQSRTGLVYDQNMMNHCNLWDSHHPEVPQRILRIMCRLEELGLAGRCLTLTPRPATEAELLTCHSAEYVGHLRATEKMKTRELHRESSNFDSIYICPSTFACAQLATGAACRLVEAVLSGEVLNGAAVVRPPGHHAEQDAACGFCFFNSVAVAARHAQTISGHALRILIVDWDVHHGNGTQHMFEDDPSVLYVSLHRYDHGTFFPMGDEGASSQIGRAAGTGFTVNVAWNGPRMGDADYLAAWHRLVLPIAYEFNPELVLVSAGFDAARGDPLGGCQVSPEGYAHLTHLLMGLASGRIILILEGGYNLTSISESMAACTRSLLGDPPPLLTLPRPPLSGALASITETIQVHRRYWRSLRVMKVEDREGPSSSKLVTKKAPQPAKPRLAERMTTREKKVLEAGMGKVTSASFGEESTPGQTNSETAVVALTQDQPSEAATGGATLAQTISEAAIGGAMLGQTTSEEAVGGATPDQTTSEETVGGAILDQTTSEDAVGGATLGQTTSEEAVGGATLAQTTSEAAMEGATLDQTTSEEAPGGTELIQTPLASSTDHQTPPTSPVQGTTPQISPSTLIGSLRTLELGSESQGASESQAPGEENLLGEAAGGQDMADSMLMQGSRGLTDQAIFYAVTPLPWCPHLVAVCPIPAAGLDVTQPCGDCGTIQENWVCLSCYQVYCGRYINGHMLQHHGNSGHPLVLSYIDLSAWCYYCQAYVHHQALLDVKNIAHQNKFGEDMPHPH
Test: HDAC6 inhibition, full IC50 measurement (Reaction Biology; fluorogenic p53 peptide RHKK(Ac)AMC)
Format: biochemical
Settings: Conc. 3.70E-07 M, t1
Peptide text beside a SMILES is read from it.
readout.type: HDAC6 activity raw data (signal)

compound="CC(C)[C@@H]1NC(=O)[C@H](CCCNC(=N)N)NC(=O)[C@@H](CC(=O)O)NC(=O)[C@H](CO)NC(=O)[C@@H](CO)NC(=O)[C@@H](CCC(=O)O)NC(=O)[C@H](Cc2ccc(O)cc2)NC(=O)[C@H](CCCCCS)NC1=O [des4.2.0, SHA-Tyr-dGlu-dSer-Ser-dAsp-Arg-Val] (HELM PEPTIDE1{R.V.[O=C([C@H](CCCCCS)N[*:1])[*:2]].Y.[dE].[dS].S.[dD]}$PEPTIDE1,PEPTIDE1,1:R1-8:R2$$$V2.0)" result=181567
compound="N=C(N)NCCC[C@@H]1NC(=O)[C@@H](CCCNC(=N)N)NC(=O)[C@H]2CCCN2C(=O)[C@@H](Cc2c[nH]cn2)NC(=O)[C@H](Cc2ccc(O)cc2)NC(=O)[C@H](CCCCCS)NC(=O)[C@H](CCc2ccccc2)NC(=O)[C@@H](CO)NC(=O)[C@H](CC(=O)O)NC1=O [des3.3.1, SHA-Tyr-dHis-dPro-dArg-Arg-Asp-dSer-C27] (HELM PEPTIDE1{[O=C([C@H](CCCCCS)N[*:1])[*:2]].Y.[dH].[dP].[dR].R.D.[dS].[O=C([C@H](CCc1ccccc1)N[*:1])[*:2]]}$PEPTIDE1,PEPTIDE1,1:R1-9:R2$$$V2.0)" result=20428
compound="N=C(N)NCCC[C@@H]1NC(=O)[C@H](Cc2c[nH]c3ccccc23)NC(=O)[C@H](CC(=O)O)NC(=O)[C@@H](CO)NC(=O)[C@H](Cc2c[nH]c3ccccc23)NC(=O)[C@H](CCCCCS)NC(=O)[C@H](CCC(N)=O)NC1=O [des4.1.0, SHA-Trp-dSer-Asp-Trp-Arg-Gln] (HELM PEPTIDE1{D.W.R.Q.[O=C([C@H](CCCCCS)N[*:1])[*:2]].W.[dS]}$PEPTIDE1,PEPTIDE1,1:R1-7:R2$$$V2.0)" result=49535
